System: Moraxella catarrhalis
Experiment: Antibacterial activity against Moraxella catarrhalis
Format: functional
property.label: MIC (µg/mL)
# value in µg/mL; strip the unit string

Answered examples (4):
molecule=Fc1ccc(B(Oc2cccc3cccnc23)c2ccc(F)cc2)cc1 test_result=2
molecule=Clc1ccc(B(Oc2cccc3cccnc23)c2ccc(Cl)cc2)cc1 test_result=2
molecule=C=CB(Oc1cccc2cccnc12)c1ccc(F)c(Cl)c1 test_result=2
molecule=C=CB(Oc1cccc2cccnc12)c1ccccc1 test_result=2

Inquiry: Lab note: need MIC with Moraxella catarrhalis for entry C=CB(Oc1cccc2cccnc12)c1cccc(Cl)c1 , please look it up.
Reply text: 4

Inquiry: Lab note: need MIC with Moraxella catarrhalis for entry C=CB(Oc1cccc2cccnc12)c1cccc(C#N)c1 , please look it up.
Reply text: 2

Inquiry: Lab note: need MIC with Moraxella catarrhalis for entry C=CB(Oc1cccc2cccnc12)c1ccccc1Cl , please look it up.
Reply text: 1

# credit: ChEMBL document CHEMBL1140298
